Cited source: paper PMC3304490

Field: Kd. Provide a value for each of the compounds that follow.
testedTarget: CR3 (DxDxD) domain of LRP (Homo sapiens)
Sequence (Q07954 852-892 limits assumed): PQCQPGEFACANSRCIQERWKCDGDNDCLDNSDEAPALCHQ
test: Tryptophan fluorescence titration of amino acid ligands with CR3 domain
Assay type: binding
measurementConditions: I=0.17, pH 5.5, 298 K
Enter your answer as a number in µM; do not include the unit.

Input: Param readout= Kd; system= CR3 (DxDxD) domain of LRP (Homo sapiens); entry= COC(=O)[C@@H](N)CCCN=C(N)N ; returns value.
Output: 2090

Input: Param readout= Kd; system= CR3 (DxDxD) domain of LRP (Homo sapiens); entry= COC(=O)[C@H](CCCCN)NC(C)=O ; returns value.
Output: 2900

Input: Param readout= Kd; system= CR3 (DxDxD) domain of LRP (Homo sapiens); entry= COC(=O)[C@@H](N)CCCCN ; returns value.
Output: 1190
